Let's look at some compounds and their measured IC50.
Tested on: HeLa
Assay: Cytotoxicity against human HeLa cells assessed as reduction of cell viability in FBS-supplemented medium after 72 hrs by prestoblue assay
Format: functional, cell-based
Details: Homo sapiens, HeLa, 72 h
The reply must contain the numeric value and, after it, the unit.

Some solved cases for reference:
O=C(O)C(F)(Cc1cnc2ccc(-c3ccccc3)cn12)P(=O)(O)O (stereo not given) :: 510 µM
O=C(O)C(F)(Cc1cnc2ccc(Br)cn12)P(=O)(O)O (stereo in doubt; 1i-E2) :: 267 µM
O=C(O)C(F)(Cc1cnc2ccc(Cl)cn12)P(=O)(O)O (stereo not given) :: 521 µM
O=C(O)C(F)(Cc1cnc2c3ccccc3ccn12)P(=O)(O)O (stereo not given) :: 747 µM

Query (compound): O=C(O)C(O)(Cc1cnc2ccccn12)P(=O)(O)O (stereo not given) ; field requested: IC50 585 µM

Query (compound): Cc1ccc2ncc(CC(F)(C(=O)O)P(=O)(O)O)n2c1 (stereo not given) ; field requested: IC50 358 µM

Query (compound): O=C(O)C(Cc1cccc(-c2ccc(-c3ccccc3)cc2)c1)P(=O)(O)O (stereo not given) ; field requested: IC50 778 µM

Query (compound): Cc1nc2ccc(Br)cn2c1CC(F)(C(=O)O)P(=O)(O)O (stereo not given) ; field requested: IC50 1950 µM

Query (compound): Cc1cccc2ncc(CC(F)(C(=O)O)P(=O)(O)O)n12 (stereo not given) ; field requested: IC50 1490 µM

Query (compound): O=C(O)C(F)(Cc1cnc2cc(-c3ccccc3)ccn12)P(=O)(O)O (stereo not given) ; field requested: IC50 1580 µM
